The measurements presented in this section are drawn from PubChem BioAssay AID1578.

# TEST_SUMMARY: NOD1 signaling inhibitors, primary screen, cell-based, luminescence, uHTS (AID 1578);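 note: HEK-293T reporter cells stimulated with the NOD1 agonist gamma-tri-DAP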
# REPORTED_CONDITIONS: NOD1-driven NF-kB luciferase reporter cells, at 4 µM
The whole screen tested about 290,000 compounds, of which about 3,000 (1%) were called active. Cut-off read from the data, not from the text of the source: active = inhibition mostly above about 36% (no sharp cut-off); inactive = mostly below about 34%. The sample holds actives, similar compounds and a random draw of the others, so the mix is not that of the screen.
Your reply should match one of these outcome classes. 1.0 for active, 0.0 for inactive

Cc1cc(C)c2[nH]c(O)c(N=NC(=S)NCC3CCCO3)c2c1 (configuration not stated) | 0.0
COc1ccc(NC(=O)CSc2nc3nc(-c4cccs4)cc(C(F)(F)F)c3c(=O)[nH]2)c(OC)c1 | 0.0
Oc1[nH]c2ccccc2c1N=NC(=S)NCC1CCCO1 (configuration not stated) | 0.0
Cc1ccc(NCc2cccnc2)c(Br)c1 | 0.0
O=C1OCCC1Sc1nnc(-c2ccc(Br)cc2)o1 (configuration not stated) | 0.0
O=C(O)c1ccc(-c2ccc(Cl)cc2Cl)o1 | 0.0

Fill in: this test's call for "CCOC(=O)N/N=C/c1c(C)nn(-c2ccccc2Cl)c1Cl" is ___ 0.0

Fill in: this test's call for "Cc1cc(Br)c(S(=O)(=O)NCc2ccncc2)cc1C" is ___ 0.0

Fill in: this test's call for "COc1cc(OC)cc(C(=O)N[C@H](C(=O)OCc2cc(=O)oc3cc(C)ccc23)C(C)C)c1" is ___ 0.0

Fill in: this test's call for "Cc1cc(-c2ccc(C)c(S(=O)(=O)NCc3cccc(Br)c3)c2)on1" is ___ 0.0

Fill in: this test's call for "c1ccc(-n2ncc3c(N4CCC5(CC4)OCCO5)ncnc32)cc1" is ___ 0.0

Fill in: this test's call for Oc1[nH]c2c(Cl)cc(Cl)cc2c1N=NC(=S)NCC1CCCO1 (configuration not stated) is ___ 1.0
